assay: reducers of endogenous Her2 protein level, primary screen, SKBR3 breast tumor cells, AlphaScreen, ATP viability (AID 461); conditions: 18-24 h, measured here: SKBR3 viability, ATP luminescence, at 10 µM;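 also: percent of carrier control wells set as 100% viability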
endpoint_label: viability (%)
Answers are plain numbers, in %.

Example entries and their recorded answers appear below.
>  <smi>
Cc1cccc(N(C)C(=O)c2coc(=O)c3ccccc23)c1

>  <viability / %>
85

$$$$
>  <smi>
CCC(C(=O)Nc1ncccn1)(C(F)(F)F)C(F)(F)F

>  <viability / %>
86.5

$$$$

Provide viability values for the following items, in order.
1. CC(C)CC(=O)N1CCN(S(=O)(=O)c2ccc(F)cc2)CC1
2. CC(C)c1nc(N2CCN(C(=O)c3ccco3)CC2)c2c3c(sc2n1)CCCC3
3. Cn1c(=O)c2c3c(sc2n2c(SCC(=O)c4ccc(Cl)cc4)nnc12)COC(C)(C)C3

result:
86.5
76.5
119

Provide viability values for the following items, in order.
1. COc1ccc(C)cc1S(=O)(=O)N(C)CC(=O)Nc1ccc2c(c1)OCO2
2. CC(C)Cn1c(=O)c(C(=O)NCc2ccccn2)c(O)c2ccccc21

result:
[129, 110]

meta.source: PubChem BioAssay
